tested on: B16; assay: Inhibitory concentration of the compound was determined against melanoma B16 cells; type: functional, cell-based; conditions: Mus musculus
Where a SMILES comes first, the peptide text is derived from it. [ ]: non-standard residue; d: D form. Nle = CCCC[C@H](N)C(=O)O
Reported property: IC50 (µM)

Worked cases, answers included:
Data request: Which measured IC50 value corresponds to CC(C)CN(CC(=O)N(CC(C)C)NC(=O)OCc1ccccc1)/N=C/c1cccc(B(O)O)c1 ?
Data returned: 53.9

Data request: Cool, now CC(C)CN(NC(=O)OCc1ccccc1)C(=O)CN(Cc1ccccc1)/N=C/c1ccc(B(O)O)cc1
Data returned: 32.6

Data request: Cool, now CC(C)CN(NC(=O)OCc1ccccc1)C(=O)CN(Cc1ccccc1)/N=C/c1ccccc1B(O)O
Data returned: 65.5

Data request: Cool, now CC(C)CN(CC(=O)N(CC(C)C)NC(=O)OCc1ccccc1)/N=C/c1ccccc1B(O)O
Data returned: 26.3

Data request: Cool, now CC(C)CN(NC(=O)OCc1ccccc1)C(=O)CN(Cc1ccccc1)/N=C/c1cccc(B(O)O)c1
Data returned: 20.4

[I] CCCC[C@@H](C=O)NC(=O)[C@H](CC(C)C)NC(=O)[C@H](CC(C)C)NC(C)=O (Ac-Leu-Leu-[Nle]-aldehyde)
[II] CC(C)CN(CC(=O)N(CC(C)C)NC(=O)OCc1ccccc1)NC(=O)CNNC(=O)CBr
Data request: Rank I against II by their IC50 values and give the higher one. Give the label of your selection.
Data returned: I
(I: 14.5 µM, II: 2.5 µM)

Data provenance: ChEMBL document CHEMBL1139495
